# target: Pim-2 (Homo sapiens)
# Construct: His6-labelled recombinant full-length human Pim-1, Pim-2 or Pim-3 protein; His6; made in house
# Sequence (Q9P1W9 whole entry): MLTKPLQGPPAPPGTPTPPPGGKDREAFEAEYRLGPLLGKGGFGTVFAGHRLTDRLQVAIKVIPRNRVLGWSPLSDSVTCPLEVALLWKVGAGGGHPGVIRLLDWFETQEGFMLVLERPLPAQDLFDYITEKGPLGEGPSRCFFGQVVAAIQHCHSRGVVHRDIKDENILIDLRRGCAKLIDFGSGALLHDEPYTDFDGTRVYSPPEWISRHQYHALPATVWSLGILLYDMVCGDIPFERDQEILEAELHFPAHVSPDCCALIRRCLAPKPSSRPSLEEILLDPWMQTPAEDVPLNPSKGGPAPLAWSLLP
# assay.remarks: TR-FRET assay, Pim-2 kinase (phosphorylation of Bad Ser112)
# Format: biochemical
# assay.conditions: TR-FRET; ATP 40 μM; read-out: IC50 Pim2
# Protocol: In order to determine the inhibition of activation of Pim kinases, the compounds of the invention are tested in accordance with a routinely used in vitro TR-FRET assay (Time-Resolved Fluorescence Resonance Energy Transfer). […] For the assay, the following reagents are used: […]
pIC50: −log10 of the molar value.

{"smiles.str": "OCc1cnc2[nH]c3cnc(-c4cccnc4)cc3c2c1", "pIC50": "< 5.30"}
{"smiles.str": "Fc1cnc2[nH]c3cnc(-c4cccnc4)cc3c2c1N1CCCCC1", "pIC50": "6.00 to 7.00"}
{"smiles.str": "Fc1cnc2[nH]c3cnc(-c4cccnc4)cc3c2c1-c1cccc(N2CCOCC2)c1", "pIC50": "< 5.30"}
{"smiles.str": "c1cncc(-c2cc3c(cn2)[nH]c2ncc(-c4ccc(N5CCNCC5)cc4)cc23)c1", "pIC50": "6.00 to 7.00"}
{"smiles.str": "Fc1cnc2[nH]c3cnc(-c4cccnc4)cc3c2c1N1CCN(CCCN2CCCCC2)CC1", "pIC50": "6.00 to 7.00"}
{"smiles.str": "CC(C)(N)C#Cc1c(F)cnc2[nH]c3cnc(-c4cccnc4)cc3c12", "pIC50": "< 5.30"}
{"smiles.str": "CN1CCN(c2cccc(-c3cnc4[nH]c5cnc(-c6cccnc6)cc5c4c3)c2)CC1", "pIC50": "5.30 to 6.00"}
{"smiles.str": "O=S(=O)(Nc1ccc(-c2c(F)cnc3[nH]c4cnc(-c5cccnc5)cc4c23)cc1)C1CC1", "pIC50": "6.00 to 7.00"}

* * *

compounds and their reported IC50
# target: PLK1 (Homo sapiens)
# Sequence (P53350 whole entry, species assumed): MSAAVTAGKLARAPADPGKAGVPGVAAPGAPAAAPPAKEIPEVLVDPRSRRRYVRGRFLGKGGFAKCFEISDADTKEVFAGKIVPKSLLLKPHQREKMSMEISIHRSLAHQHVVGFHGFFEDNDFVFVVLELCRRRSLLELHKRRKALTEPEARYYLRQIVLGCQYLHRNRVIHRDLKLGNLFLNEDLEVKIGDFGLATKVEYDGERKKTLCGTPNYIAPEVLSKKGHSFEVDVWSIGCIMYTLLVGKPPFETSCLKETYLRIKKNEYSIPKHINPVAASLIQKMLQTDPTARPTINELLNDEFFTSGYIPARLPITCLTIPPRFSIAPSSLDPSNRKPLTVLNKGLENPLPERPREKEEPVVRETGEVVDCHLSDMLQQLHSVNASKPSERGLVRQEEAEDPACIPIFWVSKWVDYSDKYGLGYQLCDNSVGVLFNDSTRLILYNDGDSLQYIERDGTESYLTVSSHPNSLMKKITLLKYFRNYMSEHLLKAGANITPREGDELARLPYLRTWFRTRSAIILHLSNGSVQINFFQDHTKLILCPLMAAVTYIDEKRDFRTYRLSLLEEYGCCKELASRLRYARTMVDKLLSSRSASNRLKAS

{"smiles.str": "NS(=O)(=O)c1cccc(-c2c(F)cnc3[nH]c4cnc(-c5cccnc5)cc4c23)c1", "IC50": "1 to 100 nM"}
{"smiles.str": "CCN(CC)CCOc1ccc(-c2c(F)cnc3[nH]c4cnc(-c5cccnc5)cc4c23)cc1", "IC50": "1 to 100 nM"}
{"smiles.str": "O=C(c1ccccc1)c1c(F)cnc2[nH]c3cnc(-c4cccnc4)cc3c12", "IC50": "100 to 1000 nM"}
{"smiles.str": "CCN(CC)CCCN1CCN(c2c(F)cnc3[nH]c4cnc(-c5cccnc5)cc4c23)CC1", "IC50": "1000 to 5000 nM"}
{"smiles.str": "CN(C)CCCOc1ccc(-c2c(F)cnc3[nH]c4cnc(-c5cccnc5)cc4c23)cc1", "IC50": "1 to 100 nM"}
{"smiles.str": "O=S(=O)(NC1CC1)c1ccc(-c2c(F)cnc3[nH]c4cnc(-c5cccnc5)cc4c23)cc1", "IC50": "1 to 100 nM"}
{"smiles.str": "COc1cnc2[nH]c3cnc(-c4cccnc4)cc3c2c1", "IC50": "100 to 1000 nM"}
{"smiles.str": "COc1cc(OC)cc(-c2c(F)cnc3[nH]c4cnc(-c5cccnc5)cc4c23)c1", "IC50": "1000 to 5000 nM"}
{"smiles.str": "O=C(O)c1cc2c(cn1)[nH]c1ncccc12", "IC50": "> 5000 nM"}
{"smiles.str": "CC(C)N1CCN(c2ccc(-c3cnc4[nH]c5cnc(-c6cccnc6)cc5c4c3)cc2)CC1", "IC50": "1000 to 5000 nM"}
{"smiles.str": "CN(C)CCCN(c1ccc(-c2c(F)cnc3[nH]c4cnc(-c5cccnc5)cc4c23)cc1)S(C)(=O)=O", "IC50": "100 to 1000 nM"}
{"smiles.str": "COCCOc1cnc2[nH]c3cnc(-c4cccnc4)cc3c2c1", "IC50": "1000 to 5000 nM"}
{"smiles.str": "O=S(=O)(CCl)Nc1ccc(-c2c(F)cnc3[nH]c4cnc(-c5cccnc5)cc4c23)cc1", "IC50": "1 to 100 nM"}
{"smiles.str": "CS(=O)(=O)Nc1ccc(-c2c(F)cnc3[nH]c4cnc(-c5cccnc5)cc4c23)cc1", "IC50": "1 to 100 nM"}
{"smiles.str": "O=C(c1c(F)cnc2[nH]c3cnc(-c4cccnc4)cc3c12)N1CCOCC1", "IC50": "1000 to 5000 nM"}
{"smiles.str": "OCc1cccc(-c2cnc3[nH]c4cnc(-c5cccnc5)cc4c3c2)c1", "IC50": "100 to 1000 nM"}
{"smiles.str": "Fc1cnc2[nH]c3cnc(-c4cccnc4)cc3c2c1-c1ccc(OCCN2CCOCC2)cc1", "IC50": "100 to 1000 nM"}

* * *

# target: Pim-1 (Homo sapiens)
# Construct: His6-labelled recombinant full-length human Pim-1, Pim-2 or Pim-3 protein; His6; made in house
# Sequence (P11309 whole entry): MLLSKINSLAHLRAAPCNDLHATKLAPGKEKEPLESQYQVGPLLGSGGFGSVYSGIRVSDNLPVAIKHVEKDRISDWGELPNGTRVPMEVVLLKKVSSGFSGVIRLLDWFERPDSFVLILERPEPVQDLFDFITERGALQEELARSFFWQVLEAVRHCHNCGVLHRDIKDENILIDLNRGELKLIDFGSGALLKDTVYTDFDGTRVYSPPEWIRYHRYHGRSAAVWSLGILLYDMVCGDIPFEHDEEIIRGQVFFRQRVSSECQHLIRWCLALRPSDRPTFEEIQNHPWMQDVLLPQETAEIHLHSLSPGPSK
# assay.remarks: TR-FRET assay, Pim-1 kinase (phosphorylation of Bad Ser112)
# Assay type: biochemical
# assay.conditions: TR-FRET; ATP 40 μM; read-out: IC50 Pim1
pIC50: −log10 of the molar value.

{"compound": "CCN(CC)CCOc1cccc(-c2cnc3[nH]c4cnc(-c5cccnc5)cc4c3c2)c1 [Example 153]", "pIC50": "7.00 to 9.00"}
{"compound": "OCc1cnc2[nH]c3cnc(-c4cccnc4)cc3c2c1 [Example 17]", "pIC50": "6.00 to 7.00"}
{"compound": "O=S(=O)(CCl)Nc1ccc(-c2c(F)cnc3[nH]c4cnc(-c5cccnc5)cc4c23)cc1 [Example 45]", "pIC50": "7.00 to 9.00"}
{"compound": "Fc1cnc2[nH]c3cnc(-c4cccnc4)cc3c2c1N1CCOCC1 [Example 33]", "pIC50": "7.00 to 9.00"}
{"compound": "COc1cncc(-c2cc3c(cn2)[nH]c2ncc(F)cc23)c1 [Example 159]", "pIC50": "5.30 to 6.00"}
{"compound": "O=S(=O)(NC1CC1)c1ccc(-c2c(F)cnc3[nH]c4cnc(-c5cccnc5)cc4c23)cc1 [Example 28]", "pIC50": "7.00 to 9.00"}
{"compound": "CC(C)(C)OC(=O)N1CCN(c2cc(-c3cnc4[nH]c5cnc(-c6cccnc6)cc5c4c3)ccn2)CC1 [Example 143]", "pIC50": "6.00 to 7.00"}
{"compound": "c1cncc(-c2cc3c(cn2)[nH]c2ncc(N4CCNCC4)cc23)c1 [Example 108]", "pIC50": "7.00 to 9.00"}
{"compound": "Cn1ccc(-c2cnc3[nH]c4cnc(-c5cccnc5)cc4c3c2)n1 [Example 116]", "pIC50": "7.00 to 9.00"}
{"compound": "CS(=O)(=O)NCc1ccc(-c2c(F)cnc3[nH]c4cnc(-c5cccnc5)cc4c23)cc1 [Example 66]", "pIC50": "7.00 to 9.00"}
{"compound": "Cn1cc(-c2cc3c(cn2)[nH]c2ncccc23)cn1 [Example 39]", "pIC50": "7.00 to 9.00"}
{"compound": "Fc1cnc2[nH]c3cnc(-c4cccnc4)cc3c2c1N1CCC(N2CCOCC2)CC1 [Example 78]", "pIC50": "7.00 to 9.00"}
{"compound": "Fc1cnc2[nH]c3cnc(-c4cccnc4)cc3c2c1 [Example 2]", "pIC50": "6.00 to 7.00"}
{"compound": "CCN(CC)CCCN1CCN(c2c(F)cnc3[nH]c4cnc(-c5cccnc5)cc4c23)CC1 [Example 89]", "pIC50": "7.00 to 9.00"}
{"compound": "CCN(CC)CCOc1ccc(-c2c(F)cnc3[nH]c4cnc(-c5cccnc5)cc4c23)cc1 [Example 100]", "pIC50": "7.00 to 9.00"}
{"compound": "CN(C)CCOc1ccc(-c2c(F)cnc3[nH]c4cnc(-c5cccnc5)cc4c23)cc1 [Example 96]", "pIC50": "7.00 to 9.00"}
{"compound": "COc1cnc2[nH]c3cnc(-c4cccnc4)cc3c2c1-c1ccc(NS(C)(=O)=O)cc1 [Example 44]", "pIC50": "7.00 to 9.00"}
{"compound": "CSc1cncc(-c2cc3c(cn2)[nH]c2ncc(F)cc23)c1 [Example 161]", "pIC50": "6.00 to 7.00"}
{"compound": "CS(=O)(=O)NCc1cccc(-c2c(F)cnc3[nH]c4cnc(-c5cccnc5)cc4c23)c1 [Example 62]", "pIC50": "7.00 to 9.00"}
{"compound": "Clc1cnc2[nH]c3cnc(-c4cccnc4)cc3c2c1 [Example 13]", "pIC50": "6.00 to 7.00"}
{"compound": "O=C(O)c1cc2c(cn1)[nH]c1ncccc12 [Example 172]", "pIC50": "< 5.30"}
{"compound": "CC(C)C(=O)Nc1ccc(-c2c(F)cnc3[nH]c4cnc(-c5cccnc5)cc4c23)cc1 [Example 68]", "pIC50": "7.00 to 9.00"}
{"compound": "c1cncc(-c2cc3c(cn2)[nH]c2ncc(-c4ccnc(N5CCNCC5)c4)cc23)c1 [Example 144]", "pIC50": "7.00 to 9.00"}
{"compound": "Fc1cnc2[nH]c3cnc(-c4cccnc4)cc3c2c1/C=C/C1CC1 [Example 27]", "pIC50": "7.00 to 9.00"}
{"compound": "c1cncc(-c2cc3c(cn2)[nH]c2ncc(N4CCOCC4)cc23)c1 [Example 14]", "pIC50": "7.00 to 9.00"}
{"compound": "Oc1ccc(-c2c(F)cnc3[nH]c4cnc(-c5cccnc5)cc4c23)cc1 [Example 95]", "pIC50": "7.00 to 9.00"}
{"compound": "COc1cnc2[nH]c3cnc(-c4cnn(CC(=O)NCCN(C)C)c4)cc3c2c1 [Example 165]", "pIC50": "6.00 to 7.00"}
{"compound": "Oc1ccc(-c2cnc3[nH]c4cnc(-c5cccnc5)cc4c3c2)cc1 [Example 151]", "pIC50": "7.00 to 9.00"}
{"compound": "c1cncc(-c2cc3c(cn2)[nH]c2ncc(-c4cccc(N5CCNCC5)c4)cc23)c1 [Example 132]", "pIC50": "7.00 to 9.00"}
{"compound": "COc1cnc2[nH]c3cnc(-c4cnn(C)c4)cc3c2c1 [Example 163]", "pIC50": "7.00 to 9.00"}
{"compound": "CC(=O)NCc1ccc(-c2c(F)cnc3[nH]c4cnc(-c5cccnc5)cc4c23)cc1 [Example 61]", "pIC50": "7.00 to 9.00"}
{"compound": "CN(c1ccc(-c2c(F)cnc3[nH]c4cnc(-c5cccnc5)cc4c23)cc1)S(C)(=O)=O [Example 48]", "pIC50": "7.00 to 9.00"}
